Catalogue of substances with associated Kd
- TARGET DESC: Receptor tyrosine-protein kinase erbB-2 (Homo sapiens, UniProt P04626)
- Sequence (P04626 whole entry): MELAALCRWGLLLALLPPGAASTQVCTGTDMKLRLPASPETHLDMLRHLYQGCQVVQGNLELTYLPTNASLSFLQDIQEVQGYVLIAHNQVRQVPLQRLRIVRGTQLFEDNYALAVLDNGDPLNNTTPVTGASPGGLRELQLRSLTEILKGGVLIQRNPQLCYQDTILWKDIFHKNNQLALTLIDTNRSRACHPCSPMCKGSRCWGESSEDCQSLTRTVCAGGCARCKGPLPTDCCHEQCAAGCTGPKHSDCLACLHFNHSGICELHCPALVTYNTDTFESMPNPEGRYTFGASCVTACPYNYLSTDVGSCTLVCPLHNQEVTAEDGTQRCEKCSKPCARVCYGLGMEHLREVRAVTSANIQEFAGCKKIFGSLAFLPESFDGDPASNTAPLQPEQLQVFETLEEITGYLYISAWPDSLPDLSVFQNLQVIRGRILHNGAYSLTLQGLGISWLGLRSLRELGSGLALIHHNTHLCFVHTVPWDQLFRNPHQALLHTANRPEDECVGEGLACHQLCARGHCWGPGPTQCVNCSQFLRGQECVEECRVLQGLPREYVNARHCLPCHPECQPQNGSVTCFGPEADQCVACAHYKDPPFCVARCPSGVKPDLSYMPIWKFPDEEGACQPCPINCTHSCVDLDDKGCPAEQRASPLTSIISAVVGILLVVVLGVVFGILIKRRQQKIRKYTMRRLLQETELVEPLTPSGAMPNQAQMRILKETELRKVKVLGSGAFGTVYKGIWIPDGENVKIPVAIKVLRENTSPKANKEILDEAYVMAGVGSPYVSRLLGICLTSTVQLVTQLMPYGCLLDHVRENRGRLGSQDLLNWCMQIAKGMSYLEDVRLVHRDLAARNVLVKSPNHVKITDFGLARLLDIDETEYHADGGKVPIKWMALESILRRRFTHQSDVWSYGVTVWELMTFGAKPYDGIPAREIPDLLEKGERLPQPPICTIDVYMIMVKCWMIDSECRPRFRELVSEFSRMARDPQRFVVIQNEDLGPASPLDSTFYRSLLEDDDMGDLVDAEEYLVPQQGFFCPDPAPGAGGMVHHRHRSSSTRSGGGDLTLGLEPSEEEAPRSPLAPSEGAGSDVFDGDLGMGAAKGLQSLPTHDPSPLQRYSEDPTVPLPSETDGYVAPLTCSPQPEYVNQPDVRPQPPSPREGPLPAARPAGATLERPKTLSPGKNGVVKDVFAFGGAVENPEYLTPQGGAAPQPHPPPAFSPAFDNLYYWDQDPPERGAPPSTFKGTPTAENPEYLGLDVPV
- PROCEDURE SUMMARY: Binding affinity to synthetic peptide mimicking HER2 subdomain 4 (unknown origin) by fluorescence spectroscopic analysis
State the answer as a number, implicitly in nM.

Example entries begin here.
| SUBSTANCE | Kd (nM) |
| --- | --- |
| Ac-ARIYPTNGYTRY-NH2 | 446 |
| Ac-CQQHYTTPPTFG-NH2 | 174 |

Give the reported Kd for this substance. `Ac-QDVNTAVAW-NH2` 10.2
